# Lookup of reported Ki keyed by entry
target: purified native human BChE (Homo sapiens); construct: purified native human BChE; tissue gift of Dr Florian Nachon (IRBA, Brétigny-sur-Orge, France); experiment: biochemical; type: biochemical; details: read-out: BChE Ki
Sequence (P06276 29-602): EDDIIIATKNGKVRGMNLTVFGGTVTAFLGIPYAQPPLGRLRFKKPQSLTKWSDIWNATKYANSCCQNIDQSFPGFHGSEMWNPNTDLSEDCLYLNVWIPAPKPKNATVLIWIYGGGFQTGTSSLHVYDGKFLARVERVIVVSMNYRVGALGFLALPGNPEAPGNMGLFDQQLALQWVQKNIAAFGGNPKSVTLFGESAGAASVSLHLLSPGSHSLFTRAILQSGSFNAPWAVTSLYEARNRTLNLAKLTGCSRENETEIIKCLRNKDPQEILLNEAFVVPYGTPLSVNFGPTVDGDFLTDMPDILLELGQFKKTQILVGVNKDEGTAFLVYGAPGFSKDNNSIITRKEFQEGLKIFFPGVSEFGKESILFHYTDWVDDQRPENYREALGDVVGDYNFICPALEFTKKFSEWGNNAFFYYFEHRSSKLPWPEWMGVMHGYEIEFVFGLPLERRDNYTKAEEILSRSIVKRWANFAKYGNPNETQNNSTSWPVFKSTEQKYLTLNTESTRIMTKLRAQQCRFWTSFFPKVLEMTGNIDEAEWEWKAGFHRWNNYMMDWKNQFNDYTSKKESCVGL
Give just the numeric value; µM need not be written.

Solved entries (count: 3):
Hey, purified native human BChE (Homo sapiens) data for CC(C)(C)C1=CC(=O)C=C(Sc2ccc(O)cc2)C1=O : Ki came out at 23

Here CC(C)(C)C1=CC(=O)C(SCCO)=CC1=O was tested on purified native human BChE (Homo sapiens), and its Ki came to 8.8

Fill in: purified native human BChE (Homo sapiens) Ki for CNC1=CC(=O)C(C(C)(C)C)=CC1=O = 228

Next, consider the following molecule.
Test item CC(C)(C)C1=CC(=O)C(SC2CCCC2)=CC1=O ; purified native human BChE (Homo sapiens); reported Ki was 5.2

Data origin: paper PMC12384008
